This collection of values is drawn from patent US20240246941A1.

Target: UniProt:P43364
Sequence (P43364 218-429): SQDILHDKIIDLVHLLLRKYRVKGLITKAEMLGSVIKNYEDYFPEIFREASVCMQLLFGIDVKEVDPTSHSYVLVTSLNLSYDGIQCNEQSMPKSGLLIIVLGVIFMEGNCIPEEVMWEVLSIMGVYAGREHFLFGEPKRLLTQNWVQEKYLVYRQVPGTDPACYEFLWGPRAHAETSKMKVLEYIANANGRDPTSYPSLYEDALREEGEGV
Assay: TR-FRET single point screening at 15 μM
Format: binding
Set-up: unit not given here
Conditions: single point TR-FRET screening at 15 μM against MAGE-A11:PCF11
VALUE_TYPE: TR-FRET signal
Lab note: write the figure by itself, no unit.

| SMI | TR-FRET signal |
| --- | --- |
| Clc1ccc2c(NCCCCN(Cc3ccccc3)Cc3ccccc3)ccnc2c1 | 17.35 |
| COc1ccc(N2CCN(c3c(S(=O)(=O)c4ccccc4)cnc4ccc(F)cc34)CC2)cc1 | −32.85 |
| O=S(=O)(c1ccccc1)c1cnc2ccc(Cl)cc2c1N1CCN(Cc2ccccc2)CC1 | −30.28 |
| CCCN(CCCNc1c2ccc(Cl)cc2nc2ccc(OC)cc12)Cc1cc(C)ccc1C | −119.3 |
| COc1ccc2ncc(C(=O)c3ccccc3)c(N3CCN(C)CC3)c2c1 | −2.393 |
| COc1ccc(CNCCCNc2c3ccc(Cl)cc3nc3ccc(OC)cc23)cc1 | −338.9 |
| CCOc1ccc2ncc(S(=O)(=O)c3ccccc3)c(N3CCN(CC)CC3)c2c1 | 4.534 |
| CCOc1ccc2ncc(S(=O)(=O)c3ccc(C)c(C)c3)c(N3CCN(C)CC3)c2c1 | −14.05 |
| COc1ccc2nc3cc(Cl)ccc3c(NCCCNCc3cc(F)ccc3OC)c2c1 | −365.4 |

Moving on to another compound below.
Query string: For the compound shown here, `CC(C)CN(CCCCNc1ccnc2cc(Cl)ccc12)Cc1ccccc1` , give the reported TR-FRET signal.
Result string: 25.47
